Reported EC50 (nM), OVCAR 5 cells (cAMP) values for a set of binders
EXPERIMENTAL TARGET: T1, RXFP1 receptor (UniProt Q9HBX9 1-757, limits assumed)
T1 sequence (looked up): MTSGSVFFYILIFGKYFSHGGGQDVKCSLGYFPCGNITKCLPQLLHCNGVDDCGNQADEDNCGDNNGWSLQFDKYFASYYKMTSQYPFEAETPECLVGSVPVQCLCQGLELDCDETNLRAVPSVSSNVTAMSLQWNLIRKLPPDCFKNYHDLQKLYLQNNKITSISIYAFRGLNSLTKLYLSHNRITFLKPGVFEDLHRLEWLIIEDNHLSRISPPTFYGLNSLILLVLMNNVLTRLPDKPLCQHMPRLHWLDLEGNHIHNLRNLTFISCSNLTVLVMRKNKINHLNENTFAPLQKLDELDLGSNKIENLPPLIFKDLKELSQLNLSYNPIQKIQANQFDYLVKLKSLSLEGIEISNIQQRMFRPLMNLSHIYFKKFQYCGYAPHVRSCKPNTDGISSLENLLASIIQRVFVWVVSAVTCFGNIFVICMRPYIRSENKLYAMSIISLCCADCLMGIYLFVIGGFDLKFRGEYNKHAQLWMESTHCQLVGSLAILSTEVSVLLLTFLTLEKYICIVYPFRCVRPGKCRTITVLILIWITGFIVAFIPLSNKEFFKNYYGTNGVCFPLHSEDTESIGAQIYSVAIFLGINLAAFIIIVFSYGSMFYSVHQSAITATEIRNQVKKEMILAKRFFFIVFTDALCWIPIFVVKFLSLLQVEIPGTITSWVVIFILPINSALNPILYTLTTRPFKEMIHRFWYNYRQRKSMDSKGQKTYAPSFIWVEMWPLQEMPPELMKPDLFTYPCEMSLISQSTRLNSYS
ASSAY DETAILS: cell-based or functional assay
*1 amine or outer side, *2 acyl side, *3 side chain or, on linkers, in order; H or OH if unused. Primed or numbered codes have the meaning given here. Side-chain parts run from the residue outwards. [ ]: non-standard residue; d: D form. The star is where a group is joined. γGlu = O=C(O)[C@H](CCC(=O)[*:2])N[*:1]; Stearoyl = CCCCCCCCCCCCCCCCCC(=O)*; αMeK = C[C@](N)(CCCCN)C(=O)O; Nle = CCCC[C@H](N)C(=O)O; PEG2′ = PEG2 spacer unit; PEG2″ = not defined here; Aib = CC(C)(N)C(=O)O
PARAMETER MEASURED: EC50 (nM), OVCAR 5 cells (cAMP)

binder="Ac-LEGREKVRAK(Ac)I[Aib][Aib]EG[Nle]STWS[Aib]RKK(Ac)K([PEG2′-PEG2′-PEG2′-γGlu-γGlu-γGlu-γGlu-Stearoyl])-NH2 [peptide of SEQ ID NO: 128]" measured_result="0.22 nM"
binder="Ac-LEGREKVRAK(Ac)I[Aib][Aib]EG[Nle]STWS[αMeK]RKK(Ac)[PEG2″][PEG2″][PEG2″]K([γGlu-γGlu-γGlu-γGlu-Stearoyl])-NH2 [peptide of SEQ ID NO: 16]" measured_result="0.02 nM"
binder="Ac-LEGREKVRAQI[Aib][Aib]EGESTWS[Aib]RKKK([PEG2″-PEG2″-γGlu-γGlu-γGlu-Stearoyl])-NH2 [peptide of SEQ ID NO: 68]" measured_result="0.63 nM"
binder="Ac-LEGREKVRAQI[Aib][Aib]EG[Nle]STWS[Aib]RKKK([PEG2′-PEG2′-PEG2′-PEG2′-PEG2′-γGlu-γGlu-γGlu-Stearoyl])-NH2 [peptide of SEQ ID NO: 93]" measured_result="0.14 nM"
